tested on: SK-MEL-28 melanoma; experiment: NCI-60 one-dose screen, 48 h; details: 10 µM unless noted
This is part of a sample that, as a whole, favours compounds with a hit. Of some 83,000 tested, about 20% had one in any assay. Calls of active or inactive are those of the source. Rule for the calls: active = growth percent below 10; inactive = the rest.
Lab note: assign the record to one of Yes (active), No (inactive)

compound	class-name
CNc1ccc(N)cc1	No
Cc1ccc2nc(C[n+]3ccc4ccccc4c3)ccc2c1	No

## Input # fetch the recorded call for Oc1c(Br)c(Br)c(O)c(Br)c1Br here
## Output No

## Input # fetch the recorded call for CCC(c1cccc(O)c1)C(CC)c1cccc(O)c1 (stereo unspecified) here
## Output No

## Input # fetch the recorded call for CC(=O)ON=C1C=CC(=C(C#N)c2ccccc2)C=C1 here
## Output No

## Input # fetch the recorded call for C[N+](C)=c1ccc2nc3c(cc(NCCCNc4cc5oc6cc(=[N+](C)C)ccc-6nc5c5ccccc45)c4ccccc43)oc-2c1 here
## Output No

* * *

Record form. Attribute: growth. Fill in for each entry.
tested on: NCI-H226 lung; experiment: NCI-60 one-dose screen, 48 h (100 = growth as untreated, 0 = no growth, -100 = all killed); details: 10 µM unless noted
This is part of a sample that, as a whole, favours compounds with a hit. Of some 83,000 tested, about 20% had one in any assay. Active and inactive are the calls of the source. Rule for the calls: active = growth percent below 10; inactive = the rest.

Below are some compounds; for each one, tell me its growth.
1. S=C(NCCNC(=S)[S][Sn]([c]1ccccc1)([c]1ccccc1)[c]1ccccc1)[S][Sn]([c]1ccccc1)([c]1ccccc1)[c]1ccccc1
2. O=C(Nc1cccc(Br)c1)Oc1ccc(Cl)c2cccnc12
3. O=C1N[C@H]2[C@H](CS[C@H]2CCCCC(=O)N(CCP(c2ccccc2)c2ccccc2)CCP(c2ccccc2)c2ccccc2)N1
4. O=C(Nc1ccccc1)c1cc(Cl)ccc1O
5. CCCCCCCCCCCCCCCC[N+](C)(CCO)Cc1cnc[nH]1 (stereo not given)

## Output
1: -95.4% (active); 2: 14.5% [100 µM] (inactive); 3: 89.5% (inactive); 4: 74% (inactive); 5: -4.89% (active)

* * *

system: 786-0 renal; assay: NCI-60 one-dose screen, 48 h (100 = growth as untreated, 0 = no growth, -100 = all killed); conditions: 10 µM unless noted
The panel holds about 83,000 compounds, 20% with a hit somewhere; the sample as a whole holds those more often.
Quick rule for you: growth at 50% or higher means t, lower means f.

Some solved cases for reference:
compound	measured-on	class-name
CCOC(=O)c1c(C)[nH]c(CO)c1C	786-0 renal	t
CCN(CC)CC(C)(C)C(=O)/C=C/c1ccc(Cl)c(Cl)c1	786-0 renal	f

## Input Say whether Nc1ccc(SSc2ccc(N)cc2)cc1 shows growth of 50% or more.
## Output t

## Input Say whether CCC(=O)Sc1ccccc1C(=O)Nc1ccc(Cl)cc1 shows growth of 50% or more.
## Output t

## Input Say whether NC(=S)N/N=C\c1nccc2c(C(F)(F)C(F)(F)C(F)(F)F)cccc12 shows growth of 50% or more.
## Output f

## Input Say whether Oc1ccc(/C=N/NC(=S)Nc2ccccc2)nc1 shows growth of 50% or more.
## Output f

* * *

tested on: CAKI-1 renal; assay: NCI-60 one-dose screen, 48 h; conditions: 10 µM unless noted
About 83,000 compounds went through this panel and 20% of them were active in at least one assay; those are over-represented in the sample as a whole. Active and inactive are the calls of the source. The calls were made as follows: active = growth percent below 10; inactive = the rest.
Lab note: assign the record to one of t for active, f for inactive

Some solved cases for reference:
compound	class-name
CC1OC2CC(=O)OC2C2=C1C(=O)c1c(O)cccc1C2=O (stereo not given)	t
N[C@H](C(=O)O)[C@@H]1CC(Cl)=NO1	f
CCOC(=O)/C=C/c1ccc([N+](=O)[O-])o1	t
O=C(/C=C/C=C/c1ccccc1)c1ccco1	f
Oc1c(Br)c(Br)c(O)c(Br)c1Br	f

## Input # fetch the recorded call for CN(C)CCOc1ccc2c(c1)C(=O)/C(=C\c1ncc([N+](=O)[O-])n1C)C2 here
## Output t

## Input # fetch the recorded call for O[C@H]1[C@H]2c3cc4c(cc3CN3CCC(=C[C@@H]1O)[C@H]23)OCO4 here
## Output f

## Input # fetch the recorded call for O=C1C2=C(Nc3cc([N+](=O)[O-])ccc3N2)OC1c1c2ccccc2cc2ccccc12 (stereo not given) here
## Output f

## Input # fetch the recorded call for Cc1ccnc2c1ccc1c(C)ccnc12 here
## Output f

## Input # fetch the recorded call for N#CSCC(=O)c1ccc(Cl)cc1 here
## Output f

## Input # fetch the recorded call for C[n+]1c(/C=C/c2ccc([N+](=O)[O-])cc2)ccc2ccccc21 here
## Output f

## Input # fetch the recorded call for COc1ccc2nc3cc(Cl)ccc3c(NCCNc3c4ccc(Cl)cc4nc4ccc(OC)cc34)c2c1 here
## Output t

## Input # fetch the recorded call for O=C(/C=C\c1cc(Br)ccc1O)/C=C/c1cc(Br)ccc1O here
## Output t

* * *

system: HT29 colon; experiment: NCI-60 one-dose screen, 48 h; settings: 10 µM unless noted
Compounds without any hit were thinned out: in the full panel of roughly 83,000, 20% have a hit. Active and inactive are the calls of the source. Rule for the calls: active = growth percent below 10; inactive = the rest.
Lab note: assign the record to one of active, inactive

Some solved cases for reference:
compound	class-name
O=C1NC(=O)/C(=C/C=C/c2ccccc2)S1	inactive
CC1OC2CC(=O)OC2C2=C1C(=O)c1c(O)cccc1C2=O (stereo not given)	active
CN(Cc1cnc2nc(N)nc(N)c2n1)c1ccc(C(=O)NC(CCC(=O)O)C(=O)O)cc1 (stereo not given)	inactive
N[C@H](C(=O)O)[C@@H]1CC(Cl)=NO1	inactive
CCCCCCCCCCCCCCCC[N+](C)(CCO)Cc1cnc[nH]1 (stereo not given)	active
Oc1ccc(/C=N/NC(=S)Nc2ccccc2)nc1	inactive

## Input # fetch the recorded call for O=C(Nc1cccc(Br)c1)Oc1ccc(Cl)c2cccnc12 here
## Output inactive

## Input # fetch the recorded call for Cc1ccnc2c1ccc1c(C)ccnc12 here
## Output inactive

## Input # fetch the recorded call for CC1OC(OC2C(OC3CCC4(C)C(CCC5(C)C4CC=C4C6CC(C)(C)CCC6(CO)C(O)CC45C)C3(C)C)OC(C(=O)O)C(OC3OC(COC4OC(CO)C(O)C(O)C4O)C(O)C(O)C3O)C2O)C(O)C(O)C1O (stereo not given) here
## Output active

## Input # fetch the recorded call for S=C(NCCNC(=S)[S][Sn]([c]1ccccc1)([c]1ccccc1)[c]1ccccc1)[S][Sn]([c]1ccccc1)([c]1ccccc1)[c]1ccccc1 here
## Output active

## Input # fetch the recorded call for O=C(Nc1ccc(F)cc1)ON=C1CCCCC1 here
## Output inactive

## Input # fetch the recorded call for Oc1c(Cl)c2ccccc2c2ccccc12 here
## Output inactive

## Input # fetch the recorded call for CCN(CC)CCOc1ccc(-c2nc3cc(Cl)ccc3s2)cc1 here
## Output active

## Input # fetch the recorded call for c1ccc2c(c1)Nc1cc3ccccc3cc1N2 here
## Output inactive

* * *

tested on: 786-0 renal; experiment: NCI-60 one-dose screen, 48 h; conditions: 10 µM unless noted
This is part of a sample that, as a whole, favours compounds with a hit. Of some 83,000 tested, about 20% had one in any assay. The source made the active and inactive calls. The calls were made as follows: active = growth percent below 10; inactive = the rest.
Lab note: assign the record to one of 1.0 for active, 0.0 for inactive

Some solved cases for reference:
smiles-repr	measured-on	class-name
O=C(/C=C/C=C/c1ccccc1)c1ccco1	786-0 renal	0.0
CNc1ccc(N)cc1	786-0 renal	0.0
COc1ccccc1/C=C\C(=O)c1ccccc1	786-0 renal	0.0
CCCCCCCCCCCCCCNCc1ccccc1	786-0 renal	0.0

## Input # fetch the recorded call for CNC(=O)N/N=C/c1ccc([N+](=O)[O-])o1 here
## Output 0.0

## Input # fetch the recorded call for CC(C)(C)c1ccc(O)c(C2CCCCC2)c1 here
## Output 0.0

* * *

test system: NCI-H322M lung; assay: NCI-60 one-dose screen, 48 h; conditions: 10 µM unless noted
The panel holds about 83,000 compounds, 20% with a hit somewhere; the sample as a whole holds those more often. Active and inactive are the calls of the source. The calls were made as follows: active = growth percent below 10; inactive = the rest.
Lab note: assign the record to one of 1 for active, 0 for inactive

compound	class-name
CC(=O)C(=Cc1ccc(C=C(C(C)=O)C(C)=O)cc1)C(C)=O	0
Cn1c2c(c3ccccc31)CCN1C[C@@H]3CCCC[C@H]3C[C@@H]21	1
CCCCCCCCCCCCCCCCN(CC)CC	0

Next, consider the following compound.
## Input # fetch the recorded call for CC1(C)CC([P+](c2ccccc2)(c2ccccc2)c2ccccc2)=NN1 here
## Output 0

* * *

tested on: UACC-62 melanoma; assay: NCI-60 one-dose screen, 48 h; settings: 10 µM unless noted
Compounds without any hit were thinned out: in the full panel of roughly 83,000, 20% have a hit. Calls of active or inactive are those of the source. Rule for the calls: active = growth percent below 10; inactive = the rest.
Lab note: assign the record to one of active, inactive

Some solved cases for reference:
compound	measured-on	class-name
Cc1ccc2nc(-[n+]3cc4ccccc4cc3C)ccc2c1	UACC-62 melanoma	inactive
COc1ccccc1/C=C\C(=O)c1ccccc1	UACC-62 melanoma	inactive
CCCCCCCCCCCCCCNCc1ccccc1	UACC-62 melanoma	inactive
CN(Cc1cnc2nc(N)nc(N)c2n1)c1ccc(C(=O)NC(CCC(=O)O)C(=O)O)cc1 (stereo not drawn)	UACC-62 melanoma	inactive

## Input # fetch the recorded call for N#CSCc1c(Cl)cccc1Cl here
## Output inactive

## Input # fetch the recorded call for Nc1ccc(SSc2ccc(N)cc2)cc1 here
## Output inactive

## Input # fetch the recorded call for COc1cc(/C=C(/C)C[N+](=O)[O-])ccc1O here
## Output inactive
